# Tested on: MDA-MB-435 melanoma
# test-name: NCI-60 one-dose screen, 48 h
# measurement-parameters: 10 µM
About 83,000 compounds went through this panel and 20% of them were active in at least one assay; those are over-represented in the sample as a whole. Activity calls are given as the source filed them. How the source made its calls: active means growth percent below 10; inactive means the rest.
Field 'call' accepts YES for active, NO for inactive

Take a look at these entries with their results.
{"compound": "Cc1ccc([N+](=O)[O-])c(C(=O)Nc2ccc(-c3ccc4c(c3)NC(=O)/C4=C\\c3ccc[nH]3)cc2)c1", "assigned-label": "NO"}
{"compound": "Cc1ccc(/C=C/C(=O)c2ccc(NC(=O)CSc3nnc(-c4c[nH]c5ccccc45)n3-c3ccccc3)cc2)cc1", "assigned-label": "NO"}
{"compound": "O=[N+]([O-])c1ccc(-c2nc(-c3ccccc3)c(-c3ccccc3)n2-c2ccc(S(=O)(=O)Nc3ncccn3)cc2)cc1", "assigned-label": "NO"}
{"compound": "O=S(=O)(c1ccc(Cl)cc1)c1nc(-c2ccccc2)oc1S(=O)(=O)c1ccc(Cl)cc1", "assigned-label": "NO"}
{"compound": "CCCCCCCCCCCCCCCCCCCC(=O)NCCc1c[nH]c2ccc(OC(=O)CCCC(=O)OCCOOCCOOCCOOCCOOCCOOCCOOCCOOCCOOCCOOCCOOCCOOCCOC)cc12", "assigned-label": "NO"}
{"compound": "COc1ccc(/C=C/C(=O)c2ccc(NC(=O)CN3C(=O)NC(C)(c4ccccc4)C3=O)cc2)cc1 (stereo unspecified)", "assigned-label": "NO"}
{"compound": "CC(=C(c1ccc(OCCCN(C)C)cc1)c1ccc(OCCCN(C)C)cc1)c1ccccc1", "assigned-label": "YES"}
{"compound": "COc1cc(NC(=O)c2cc(-c3ccc(F)cc3F)ccc2O)cc(OC)c1OC", "assigned-label": "NO"}
{"compound": "O=C1Nc2ccc(F)cc2/C1=C/c1cccc(OCc2ccccn2)c1", "assigned-label": "YES"}
{"compound": "O=c1cc(-c2ccccc2)oc2cc(OCCCCNCc3ccccc3)cc(O)c12", "assigned-label": "YES"}

Here is another compound to look at.
# outcome recorded in this test, key = CC(C)(C)c1ccc(NCc2cn(-c3ccc(C(=O)O)cc3)nc2-c2ccc(C#N)cc2)cc1
NO

----------
growth: recorded values
# System: SK-MEL-2 melanoma
# test-name: NCI-60 one-dose screen, 48 h (100 = growth as untreated, 0 = no growth, -100 = all killed)
# measurement-parameters: 10 µM
Compounds without any hit were thinned out: in the full panel of roughly 83,000, 20% have a hit.
Your answer should be a plain number; it is taken to be in %.

{"compound-smiles": "COc1cccc(-c2nn(-c3ccccc3)cc2-c2ccnc(NCCCNC(=O)Nc3ccc(F)cc3)c2)c1", "growth, %": -40.6}
{"compound-smiles": "O=C(CSc1nnc(-c2c[nH]c3ccccc23)n1-c1ccccc1)c1ccccc1", "growth, %": 91.9}

Please look at the following molecule next.
What value of growth has been recorded for this entry: CN1CCO/C1=C(/NC(=O)c1ccc(Cl)cc1)[P+](c1ccccc1)(c1ccccc1)c1ccccc1
90.9

----------
# System: 786-0 renal
# test-name: NCI-60 one-dose screen, 48 h
# measurement-parameters: 10 µM
The panel holds about 83,000 compounds, 20% with a hit somewhere; the sample as a whole holds those more often. Calls of active or inactive are those of the source. Rule for the calls: active = growth percent below 10; inactive = the rest.
# valid calls are active, inactive; nothing else

Use these answered entries as a reference point.
{"molecule": "CC(=C(c1ccc(OCCCN(C)C)cc1)c1ccc(OCCCN(C)C)cc1)c1ccccc1", "assigned-label": "active"}
{"molecule": "CC(=O)NNc1ccc2nnc(-c3ccc(Br)cc3)n2n1", "assigned-label": "inactive"}
{"molecule": "COc1ccc(CCN2C(=O)/C(=C/c3csc(C#N)n3)SC2=S)cc1", "assigned-label": "active"}
{"molecule": "COc1ccc(-c2nc(S(=O)(=O)c3ccc(C)cc3)c(S(=O)(=O)CC(=O)N(C)Cc3ccccc3)o2)cc1", "assigned-label": "inactive"}
{"molecule": "CC(=O)Nc1ccc(-n2cnc3cc(-c4ccc(NS(C)(=O)=O)cc4)ccc32)cc1", "assigned-label": "inactive"}
{"molecule": "CCCCSc1nc(Nc2ccc(/C(C)=N/NC(N)=S)cc2)c(C#N)c(-c2ccc(OC)cc2)n1", "assigned-label": "active"}
{"molecule": "Nc1cccnc1/C=N/NC(=S)NCCNC(=O)c1ccc(-n2nc(-c3ccccc3O)nc2-c2ccccc2O)cc1", "assigned-label": "active"}
{"molecule": "CN1CCN(Cc2ccc(C(=O)Nc3cccc(Nc4ccc5c(O)cccc5n4)c3)cc2C(F)(F)F)CC1", "assigned-label": "active"}

Hey, what did the test say about Cc1ccc(C(=O)Nc2ccc(-n3c(C)nc4c(cnn4-c4ccccc4)c3=O)cc2)cc1 ?
inactive

Would you mind telling me which call this test gave CCOP(=O)(OCC)O[C@H]1CCC(=O)[C@@H]2[C@H]1[C@H]1C[C@@H]3[C@@]4(C)CCCC(C)(C(=O)OC)[C@@H]4CC[C@@]23C=C1C(C)C (stereo partly drawn) ?
inactive

Hi, sorry to bother you, what did the test record for CC(=O)Nc1ccc(-n2cnc3cc(-c4ccc(O)cc4)ccc32)cc1C ?
inactive

How was O=C(c1ccc(-n2c(=O)[nH]c3ccccc3c2=O)cc1)N1CCOCC1 classified in this test?
inactive

State the result this test recorded for C=CC(=O)Nc1ccc(C(=O)/C=C/c2ccc(N(C)CCF)cc2)c(O)c1 .
active

----------
# Test system: HCT-15 colon
# test-name: NCI-60 one-dose screen, 48 h
# measurement-parameters: 10 µM
Compounds without any hit were thinned out: in the full panel of roughly 83,000, 20% have a hit. Calls of active or inactive are those of the source. How the source made its calls: active means growth percent below 10; inactive means the rest.
Hi there, use one of these labels in your reply, thanks! 1 for active, 0 for inactive

Take a look at these entries with their results.
{"compound": "O/N=C(\\CSc1nnc(-c2c[nH]c3ccccc23)n1-c1ccccc1)c1ccc(Cl)cc1", "assigned-label": 1}
{"compound": "CC(=O)c1ccc(Nc2nc(SC(C)C)nc(-c3ccccc3)c2C#N)cc1", "assigned-label": 0}
{"compound": "CC1=C2C(=C[C@@](C)(COCOCCCl)[C@@H]2O)C(=O)[C@](C)(O)C12CC2", "assigned-label": 1}
{"compound": "CCOC(=O)C1=C(N)N(c2ccc(C)cc2)C2=C(C(=O)CC(C)(C)C2)C1c1ccccc1OC (stereo not drawn)", "assigned-label": 0}
{"compound": "COc1ccc2nc(Cl)c(-c3cc(-c4ccccc4)nc(=S)[nH]3)cc2c1", "assigned-label": 0}

Any idea what this test logged for NC(=Nc1ccc(OCCCCCCCCn2ccnn2)cc1)c1ccccc1 ?
0

Record lookup: outcome of this test for COc1ccccc1[C@H]1C(C(=O)c2ccc(O)cc2)C2(N[C@@H]1c1ccccc1)C(=O)Nc1ccc(Br)cc12 (stereo partly drawn) ?
0

Dear colleague, could you share the recorded outcome for COc1ccc([C@H]2C(C(=O)c3ccc(Cl)cc3)C3(N[C@@H]2c2ccccc2)C(=O)Nc2ccc(Br)cc23)cc1 (stereo partly drawn) when you have a moment?
1

Returns: the outcome recorded for C=CCn1c(SCC(=O)Nc2ccc(C(=O)/C=C/c3ccccc3)cc2)nnc1-c1c[nH]c2ccccc12 in this assay.
1

Could you kindly confirm the outcome this assay logged for N#Cc1c(Cl)nc(SCc2ccc(F)cc2)nc1-c1ccc(F)cc1 ?
0

Answer briefly: the call reported for N#Cc1c(NC(=O)c2ccc(C(F)(F)F)cc2)sc2c1CCC(=O)C2 in this assay.
1

Test call for this compound, please: CC1(C)CC[C@]2(C(=O)NCCCNCCCCNCCCN)CC[C@]3(C)C(=CC[C@@H]4[C@@]5(C)Cc6c([nH]c7ccccc67)C(C)(C)[C@@H]5CC[C@]43C)[C@H]2C1
0

Short answer needed: outcome of this test for N#Cc1ccc(NC(=O)CSc2ccc(-c3ccc(Br)cc3)nn2)cc1 ?
0

Returns: the outcome recorded for CC1(C)CC[C@]23CC[C@]4(C)[C@H](CC[C@@H]5[C@@]6(C)CC[C@H](N)C(C)(C)[C@@H]6CC[C@]54C)[C@H]2[C@H]1OC3=O in this assay.
1

What did the test return for OCCCNc1oc(-c2ccccc2)nc1[P+](c1ccccc1)(c1ccccc1)c1ccccc1 ?
0

In this assay, the call recorded for CN1C(=O)/C(=C/c2nccs2)SC1=S was what?
0

Would you mind telling me which call this test gave CN1CCN(c2ccc(Nc3nc(NCCNC(=O)c4ccc(C(F)(F)F)cc4)c4sccc4n3)cc2)CC1 ?
1

----------
# Tested on: OVCAR-5 ovarian
# test-name: NCI-60 one-dose screen, 48 h (100 = growth as untreated, 0 = no growth, -100 = all killed)
# measurement-parameters: 10 µM
The panel holds about 83,000 compounds, 20% with a hit somewhere; the sample as a whole holds those more often.
Each record here notes measured growth.
Please respond with the number in % and leave the unit unwritten.

{"compound": "CCOc1ccc(/C=N/NC(=O)Cn2nc(Cc3ccccc3)c3onc(C)c3c2=O)cc1", "growth [%]": 60.9}
{"compound": "O=C(NC(=S)N1CCN(c2ncnc3c2cnn3-c2ccccc2)CC1)c1ccc(Cl)cc1", "growth [%]": 83.8}
{"compound": "O=c1oc2ccc(-c3ccc(F)cc3F)cc2c(=O)n1-c1ccc(Cl)c(C(F)(F)F)c1", "growth [%]": -2.12}
{"compound": "CCCn1c(=O)c2[nH]c(-c3ccc(OCc4nc5ccc(F)cc5[nH]4)cc3)nc2n(CCC)c1=O", "growth [%]": 43.3}
{"compound": "O=C(Nc1nc2ccccc2s1)c1ccc(Br)cc1", "growth [%]": 92.9}
{"compound": "CC1=C(c2cc(-c3ccc(Cl)cc3)c(C#N)c(N)n2)C(c2ccccc2)NC(=S)N1 (stereo unspecified)", "growth [%]": 93.5}
{"compound": "COC(=O)C(Cc1ccc(O)c(O)c1)NC(=O)C(CSC/C=C(\\C)CCCC(C)CCCC(C)CCCC(C)C)NC(C)=O (stereo unspecified)", "growth [%]": 28}
{"compound": "COc1ccc(N2N=C(c3ccc4c(c3)OCCO4)CC2c2cccc(NC(=O)CCCNS(=O)(=O)c3ccc(F)cc3)c2)cc1 (stereo unspecified)", "growth [%]": 89}
{"compound": "CC(=O)Nc1ccc(-n2cnc3cc(-c4ccc(NS(C)(=O)=O)cc4)ccc32)cc1", "growth [%]": 79.3}
{"compound": "COc1ccc(/C(C)=N/N=C2C(=O)N(C)c3ccc(Br)cc32)cc1S(N)(=O)=O", "growth [%]": 81.4}

Reported growth, compound CC1(C)CC[C@]2(C(=O)NCCCNCCCCNCCCN)CC[C@]3(C)C(=CC[C@@H]4[C@@]5(C)Cc6c([nH]c7ccccc67)C(C)(C)[C@@H]5CC[C@]43C)[C@H]2C1 : ____
91.1

// lookup growth for O=C(Nc1ccc(I)cc1)Nc1nc2ccc([N+](=O)[O-])cc2s1
-98.4

Which growth value is on record for CC(C)Sc1nc(NC2CC2)c(C#N)c(-c2ccccc2)n1 ?
92
